subjectOfTest: Protein translocase subunit SecA (Escherichia coli (strain K12))
procedureText: Assay to Identify E. coli SecA ATPase Inhibitors
Format: functional
Parameters: scale not given: direction of the effect not stated beside the values
assayConditions: 30 µM
Potency and affinity values are given separately.
# Percent Effect per entry
Express it in %; write the number only.

As a guide, the following entries are already answered.
{"molecule": "CC(c1nc(C2CC2)no1)N1CCN(Cc2ccccc2F)CC1 (stereo unspecified)", "subjectOfTest": "Protein translocase subunit SecA (Escherichia coli (strain K12))", "resultUnit": "%", "reportedMeasurement": -2.5}
{"molecule": "Cc1csc(C2CCCN(C(=O)c3cc(Cl)c[nH]3)C2)n1 (stereo unspecified)", "subjectOfTest": "Protein translocase subunit SecA (Escherichia coli (strain K12))", "resultUnit": "%", "reportedMeasurement": -4.24}
{"molecule": "CS(=O)(=O)N1CCCCCC1C1CCN(c2ncccc2C#N)CC1 (stereo unspecified)", "subjectOfTest": "Protein translocase subunit SecA (Escherichia coli (strain K12))", "resultUnit": "%", "reportedMeasurement": -0.308}
{"molecule": "Cc1noc(CN2Cc3ccccc3CC2c2nnc(C)o2)n1 (stereo unspecified)", "subjectOfTest": "Protein translocase subunit SecA (Escherichia coli (strain K12))", "resultUnit": "%", "reportedMeasurement": -3.16}
{"molecule": "CC(C)c1ccsc1C(=O)N1CCCN(Cc2cscn2)CC1", "subjectOfTest": "Protein translocase subunit SecA (Escherichia coli (strain K12))", "resultUnit": "%", "reportedMeasurement": -1.52}

--- query ---
Qu. // returns reported Percent Effect for input Cc1cnn(CC2CCCCN2C(=O)CN(C)C2CC2)c1 (stereo unspecified)
Ans. 0.161

====

subjectOfTest: Arginase-2, mitochondrial (Homo sapiens)
procedureText: in vitro enzyme assay to detect the production of urea directly proportional to the activity of Arginase II; further: in the data most compounds retested in dose-response had high values
Assay type: functional
Parameters: scale not given: direction of the effect not stated beside the values
assayConditions: 33.3 µM
quantityName: Percent Effect (%)
A number alone suffices; assume %.

Below, 4 compounds whose answers are already recorded.
{"compound": "CCC(O)CN1CCN(C(=O)c2cccn2Cc2cccs2)CC1 (stereo unspecified)", "subjectOfTest": "Arginase-2, mitochondrial (Homo sapiens)", "resultUnit": "%", "Percent Effect": 0.38}
{"compound": "Cc1cc(C(=O)N2CCCC2Cn2nc(C)cc2C)on1 (stereo unspecified)", "subjectOfTest": "Arginase-2, mitochondrial (Homo sapiens)", "resultUnit": "%", "Percent Effect": -7.62}
{"compound": "CC(C)NC(=O)[C@@H]1CCO[C@@H]2CCN(c3ncccn3)C[C@H]21", "subjectOfTest": "Arginase-2, mitochondrial (Homo sapiens)", "resultUnit": "%", "Percent Effect": -45}
{"compound": "Cc1nccn1CCC1CCCCN1C(=O)c1ccc2[nH]nnc2c1 (stereo unspecified)", "subjectOfTest": "Arginase-2, mitochondrial (Homo sapiens)", "resultUnit": "%", "Percent Effect": 16.7}

Qu. Entry under review: Cc1ccccc1-c1cncc(C2CCN(C(=O)CN(C)C)CC2)n1 . Reported Percent Effect?
Ans. -8.59

Qu. CCc1nc(C2CCCN(C(=O)CCn3ccccc3=O)C2)no1 (stereo unspecified) ?
Ans. -1.15

Qu. Same question for CN1C(=O)CC(c2cnn(C)c2)C12CCN(C(=O)C1CC=CC1)CC2 (stereo unspecified) please.
Ans. -2.23

Qu. Now the compound CN1CCN(C(=O)c2cnc3c(cnn3C3CCCC3)c2)CC1
Ans. 5.7

Qu. What about Cc1nc(C)n(CC2CCCN(c3ncnc4sccc34)C2)n1 (stereo unspecified) ?
Ans. 0.401

Qu. Also C[C@H](O)CNC(=O)c1cnc(-c2ccccc2)nc1O ?
Ans. 19.1

Qu. Please do the same for Cc1cnn(CC2CCCN2CC(=O)N(C)Cc2ccc(C)o2)c1 (stereo unspecified) as well.
Ans. 0.476
